Molecular target: T1, SND1 (Homo sapiens, UniProt Q7KZF4)
T1 construct: 15 μg of His-SND1 (16-339) was added to the resin; made in house; host or cells: E. coli DH5α
T1 sequence (Q7KZF4 1-339): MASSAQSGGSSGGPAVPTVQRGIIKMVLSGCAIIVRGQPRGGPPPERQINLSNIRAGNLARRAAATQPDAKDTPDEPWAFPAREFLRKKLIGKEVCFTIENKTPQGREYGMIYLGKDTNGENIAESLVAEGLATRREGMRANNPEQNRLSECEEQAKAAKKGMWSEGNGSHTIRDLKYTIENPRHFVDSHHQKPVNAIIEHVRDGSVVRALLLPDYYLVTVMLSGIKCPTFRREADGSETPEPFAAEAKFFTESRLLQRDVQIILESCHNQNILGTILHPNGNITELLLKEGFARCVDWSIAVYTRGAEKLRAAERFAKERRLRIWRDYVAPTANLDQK
Experiment: GST-mediated pull-down of SND1 by GST-tagged MTDH fragments and mutants
Format: binding
Conditions: His6-SND1ΔC (1-339); Coomassie blue staining
ENDPOINT_LABEL: SND1-binding of MTDH fragments and triple mutants, in vitro

TPM1: MTDH triple-point mutant D389R, D393R and W394D (protein, left off: a dimerising Fc or GST, MTDH triple-point mutant D389R, D393R and W394D) YQWDVSRNQPYIDDEWSGLNGLSSARPNSRDNAPAEEWGNWVDEERASLLKSQEPIPDDQKVSDDDKEKGEGALPTGKSKKKKKKKKKQGEDNSTAQDTEELEKEIREDLPVNTSKTRPKQEKAFSLKTISTSDPAEVLVKNSQPIKTLPPATSTEPSVILSKSDSDKSSSQVPPILQETDKSKSNTKQNSVPPSQTKSETSWESPKQIKKKKKARRET :: could not bind
TPM2: MTDH triple-point mutant E399R, E400R and W401D (protein, left off: a dimerising Fc or GST, MTDH triple-point mutant E399R, E400R and W401D) YQWDVSRNQPYIDDEWSGLNGLSSADPNSDWNAPARRDGNWVDEERASLLKSQEPIPDDQKVSDDDKEKGEGALPTGKSKKKKKKKKKQGEDNSTAQDTEELEKEIREDLPVNTSKTRPKQEKAFSLKTISTSDPAEVLVKNSQPIKTLPPATSTEPSVILSKSDSDKSSSQVPPILQETDKSKSNTKQNSVPPSQTKSETSWESPKQIKKKKKARRET :: could not bind
